Data origin, for the record: patent US20040254162A1

system: anaerobic bacteria; assay: Agar dilution method for anaerobic bacteria, summary; assay type: cell-based; conditions: anaerobes
Doc: threshold 0.7 µg/mL (exclusive). Items with Geometric Mean beneath it return TRUE; others return FALSE.

State whether 0.7 µg/mL exceeds Geometric Mean recorded for Cc1ncc([N+](=O)[O-])n1CCO .
TRUE

Follow-up item: CC1(C)S[C@@H]2[C@H](NC(=O)[C@H](N)c3ccc(O)cc3)C(=O)N2[C@H]1C(=O)O
FALSE

One more compound: CC(=O)NC[C@H]1CN(c2ccc(N3CCN(Cc4ccc([N+](=O)[O-])o4)CC3)c(F)c2)C(=O)O1.Cl
TRUE

Then this compound: CN[C@H](CC(C)C)C(=O)N[C@H]1C(=O)N[C@@H](CC(N)=O)C(=O)N[C@H]2C(=O)N[C@H]3C(=O)N[C@H](C(=O)N[C@H](C(=O)O)c4cc(O)cc(O)c4-c4cc3ccc4O)[C@H](O)c3ccc(c(Cl)c3)Oc3cc2cc(c3O[C@@H]2O[C@H](CO)[C@@H](O)[C@H](O)[C@H]2O[C@H]2C[C@](C)(N)[C@H](O)[C@H](C)O2)Oc2ccc(cc2Cl)[C@H]1O
FALSE

Entry to check: CCC[C@@H]1C[C@@H](C(=O)N[C@@H]([C@H]2O[C@H](SC)[C@H](O)[C@@H](O)[C@H]2O)[C@H](C)Cl)N(C)C1
TRUE

Same question, COc1c(N2CCNC(C)C2)c(F)cc2c(=O)c(C(=O)O)cn(C3CC3)c12 (centres unmarked) this time
TRUE

Now consider C[C@@H](O)[C@H]1C(=O)N2C(C(=O)O)=C(SCCN=CN)C[C@H]12 .
TRUE

Further cases:
Regarding CC(=O)NC[C@H]1CN(c2ccc(N3CCOCC3)c(F)c2)C(=O)O1 , kindly confirm whether its Geometric Mean is beneath 0.7 µg/mL.
FALSE

====

system: Mycobacterium avium intracellulare; assay: Agar dilution method, mycobacteria; type: cell-based; details: Mycobacterium avium, 504 h; Middlebrook 7H10 agar, 21 days; read-out: MIC90
Recorded MIC90 values for a group of compounds are listed next.
Report only the number, with the unit µg/mL understood.

# lookup: MIC90 of C[C@@H]1CN(c2c(F)c(N)c3c(=O)c(C(=O)O)cn(C4CC4)c3c2F)C[C@H](C)N1
8

Another compound: CO[C@H]1/C=C/O[C@@]2(C)Oc3c(C)c(O)c4c(O)c(c(/C=N/N5CCN(C)CC5)c(O)c4c3C2=O)NC(=O)/C(C)=C\C=C\[C@H](C)[C@H](O)[C@@H](C)[C@@H](O)[C@@H](C)[C@H](OC(C)=O)[C@@H]1C
32

Another compound to check: CC[C@H]1OC(=O)[C@H](C)[C@@H](O[C@H]2C[C@@](C)(OC)[C@@H](O)[C@H](C)O2)[C@H](C)[C@@H](O[C@@H]2O[C@H](C)C[C@H](N(C)C)[C@H]2O)[C@](C)(OC)C[C@@H](C)C(=O)[C@H](C)[C@@H](O)[C@]1(C)O
4

Further cases:
I am curious: what MIC90 value has been reported for NNC(=O)c1ccncc1 ?
64

CC(=O)NC[C@H]1CN(c2ccc(N3CCOCC3)c(F)c2)C(=O)O1 , same question.
64

====

test system: S. aureus; assay: Summary of in vitro activity (MIC); details: S. aureus
Documented Geometric Mean of in vitro activity (MIC) across a set of molecules
Expressed in µg/mL, but write only the number.

# lookup: Geometric Mean of in vitro activity (MIC) of CC(=O)NC[C@H]1CN(c2ccc(N3CCC(N(C)Cc4ccc([N+](=O)[O-])o4)CC3)c(F)c2)C(=O)O1
1

Consider next the molecule CC(=O)NC[C@H]1CN(c2ccc(N3CCN(C(=O)c4ccc([N+](=O)[O-])o4)CC3)c(F)c2)C(=O)O1 in the same way.
0.74

Now consider CC(=O)NC[C@H]1CN(c2ccc(N3CCC(N(C)C(=O)c4ccc([N+](=O)[O-])o4)CC3)c(F)c2)C(=O)O1 and answer again.
0.11

Thanks! And CC(=O)NC[C@H]1CN(c2ccc(N3CC4C(CN(C)Cc5ccc([N+](=O)[O-])o5)C4C3)c(F)c2)C(=O)O1 (some centres unmarked) ?
1.83

***
Any idea what Geometric Mean of in vitro activity (MIC) was measured for CC(=O)NC[C@H]1CN(c2ccc(N3CCN(Cc4ccc([N+](=O)[O-])o4)CC3)c(F)c2)C(=O)O1 ?
1.63
